# MEASUREMENT TARGET: MATK (human)
# TEST DESCRIPTION: radiometric filter-binding kinase assay, Kinase HotSpot
# CONDITION INFO: compound 0.5 µM; ATP 10 µM
Listed here are compounds together with their documented residual activity.
Unit % implied. Number only.

{"columns": ["CHEMICAL STRING", "residual activity (%)"],
 "data": [
  ["O=c1c2ccccc2[nH]c(=S)n1CCN1CCC(=C(c2ccc(F)cc2)c2ccc(F)cc2)CC1", 92.9]
]}

(Q) Can you share its residual activity? I mean this compound: `FC(F)(F)c1ccc(/C=C/c2nc(COc3ccc(CCCCn4ccnn4)cc3)co2)cc1`
(A) 95

(Q) Same again, this time with `O=c1[nH]c2ccccc2n1C1CCN(Cc2ccc(-c3nc4cc5[nH]cnc5cc4nc3-c3ccccc3)cc2)CC1`
(A) 102

(Q) Would you mind doing `COc1cc2c(cc1OC)-c1[nH]nc(Nc3cccc(F)c3)c1C2` as well?
(A) 92.1

(Q) Same question for `O=c1c(-c2ccc(F)cc2)c(-c2ccncc2)[nH]n1-c1ccc(Cl)cc1` please.
(A) 86

(Q) Now give it for `Cn1cc(/C=C2\C(=O)Nc3ccc(S(N)(=O)=O)cc32)c2ccccc21` too.
(A) 103

(Q) // query: `Cc1cc(Nc2nc(-c3ccccc3)nc3ccccc23)n[nH]1`
(A) 96.1

====

# MEASUREMENT TARGET: TEC (human) (UniProt P42680)
# Sequence (P42680 whole entry, looked up): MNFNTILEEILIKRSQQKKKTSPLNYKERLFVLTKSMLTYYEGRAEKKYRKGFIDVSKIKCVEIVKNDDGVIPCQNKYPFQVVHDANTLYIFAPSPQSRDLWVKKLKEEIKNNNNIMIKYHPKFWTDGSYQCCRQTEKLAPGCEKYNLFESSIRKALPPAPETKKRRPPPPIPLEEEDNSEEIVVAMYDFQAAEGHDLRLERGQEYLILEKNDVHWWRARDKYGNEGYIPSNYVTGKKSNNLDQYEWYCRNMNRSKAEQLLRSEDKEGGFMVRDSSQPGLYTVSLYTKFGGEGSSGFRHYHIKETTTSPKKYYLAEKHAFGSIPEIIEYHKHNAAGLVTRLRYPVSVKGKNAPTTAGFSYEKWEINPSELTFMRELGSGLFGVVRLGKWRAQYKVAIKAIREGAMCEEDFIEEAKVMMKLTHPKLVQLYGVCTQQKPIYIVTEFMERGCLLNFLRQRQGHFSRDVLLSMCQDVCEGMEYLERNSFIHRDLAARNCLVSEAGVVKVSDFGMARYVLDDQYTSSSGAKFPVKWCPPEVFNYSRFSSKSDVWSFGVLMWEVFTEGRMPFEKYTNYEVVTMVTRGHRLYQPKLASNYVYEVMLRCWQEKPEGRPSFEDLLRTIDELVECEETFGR
# TEST DESCRIPTION: radiometric filter-binding kinase assay, Kinase HotSpot
# CONDITION INFO: compound 0.5 µM; ATP 10 µM
READOUT LABEL: residual activity (%)
Entry rule: numbers only, all in %.

# count of solved cases: 4
{"columns": ["CHEMICAL STRING", "READOUT LABEL", "REPORTED"],
 "data": [
  ["O=C1NC(=O)c2cc(Nc3ccc(F)cc3)c(Nc3ccc(F)cc3)cc21", "residual activity", 102],
  ["COc1cc2c(N3CCN(C(=O)Nc4ccc(OC(C)C)cc4)CC3)ncnc2cc1OCCCN1CCCCC1", "residual activity", 89],
  ["O=c1[nH]c2ccccc2n1C1CCN(Cc2ccc(-c3nc4cc5[nH]cnc5cc4nc3-c3ccccc3)cc2)CC1", "residual activity", 162],
  ["CCc1nc(-c2ccc(OC)cc2)[nH]c1-c1ccncc1", "residual activity", 109]
]}

(Q) Fill in the blank: the reported residual activity of `O=c1c2ccccc2[nH]c(=S)n1CCN1CCC(=C(c2ccc(F)cc2)c2ccc(F)cc2)CC1` is ____.
(A) 110

====

# MEASUREMENT TARGET: GRK5 (human) (UniProt P34947)
# Sequence (P34947 whole entry, looked up): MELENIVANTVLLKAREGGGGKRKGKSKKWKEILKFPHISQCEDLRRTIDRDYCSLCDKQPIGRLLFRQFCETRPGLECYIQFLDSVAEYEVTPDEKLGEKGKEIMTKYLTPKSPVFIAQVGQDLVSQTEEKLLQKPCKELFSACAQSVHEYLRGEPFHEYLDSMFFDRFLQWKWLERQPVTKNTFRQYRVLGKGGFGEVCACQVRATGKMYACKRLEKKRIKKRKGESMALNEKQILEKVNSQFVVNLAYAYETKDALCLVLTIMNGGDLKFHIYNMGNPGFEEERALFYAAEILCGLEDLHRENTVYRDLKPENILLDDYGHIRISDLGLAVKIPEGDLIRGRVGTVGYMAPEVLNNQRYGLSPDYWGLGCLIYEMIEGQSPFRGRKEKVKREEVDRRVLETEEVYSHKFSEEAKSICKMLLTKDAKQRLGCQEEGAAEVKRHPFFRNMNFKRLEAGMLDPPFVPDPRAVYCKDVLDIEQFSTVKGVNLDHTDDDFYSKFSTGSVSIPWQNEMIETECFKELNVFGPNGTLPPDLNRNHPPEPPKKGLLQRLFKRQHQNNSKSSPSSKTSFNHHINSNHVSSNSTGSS
# TEST DESCRIPTION: radiometric filter-binding kinase assay, Kinase HotSpot
# CONDITION INFO: compound 0.5 µM; ATP 10 µM
READOUT LABEL: residual activity (%)
Entry rule: numbers only, all in %.

{"columns": ["CHEMICAL STRING", "residual activity, %"],
 "data": [
  ["O=C1NC(=O)c2c1c1c3ccccc3[nH]c1c1[nH]c3cc(Br)ccc3c21", 97],
  ["O=C1NC(=O)c2cc(Nc3ccc(F)cc3)c(Nc3ccc(F)cc3)cc21", 101],
  ["O=S(=O)(NCCNC/C=C/c1ccc(Br)cc1)c1cccc2cnccc12", 127]
]}

(Q) I would be grateful if you could share the reported residual activity for `Cc1cc(Nc2nc(-c3ccccc3)nc3ccccc23)n[nH]1` .
(A) 119

(Q) What do you get for `N/C(=N\N=C/c1ccc(-c2cccc([N+](=O)[O-])c2)o1)N[N+](=O)[O-]` ?
(A) 123

(Q) Next record, please: `CCc1nc(-c2ccc(OC)cc2)[nH]c1-c1ccncc1`
(A) 107

(Q) # iterate: `COc1cccc(-c2cc(=O)c3ccccc3o2)c1N`
(A) 97.3

(Q) One more compound: `O=c1[nH]c2ccccc2n1C1CCN(Cc2ccc(-c3nc4cc5[nH]cnc5cc4nc3-c3ccccc3)cc2)CC1`
(A) 109

(Q) Same question for `O=C(c1ccccc1)c1ccc(N2CCOCC2)cc1O` please.
(A) 105

(Q) Try this compound too: `O=c1cc(N2CCOCC2)oc2c(-c3ccccc3)cccc12`
(A) 91.6

(Q) Same question, `COc1cc2c(cc1OC)-c1[nH]nc(Nc3cccc(F)c3)c1C2` this time
(A) 95.8

(Q) For `FC(F)(F)c1ccc(/C=C/c2nc(COc3ccc(CCCCn4ccnn4)cc3)co2)cc1` then?
(A) 109

(Q) // next record `Nc1ncnc2c1cnn2-c1ccccc1`
(A) 104

(Q) Try this compound too: `O=c1c(-c2ccc(F)cc2)c(-c2ccncc2)[nH]n1-c1ccc(Cl)cc1`
(A) 90.3

====

Form field: residual activity (one value per entry).
# MEASUREMENT TARGET: UniProt:P19784
# Sequence (P19784 whole entry, looked up): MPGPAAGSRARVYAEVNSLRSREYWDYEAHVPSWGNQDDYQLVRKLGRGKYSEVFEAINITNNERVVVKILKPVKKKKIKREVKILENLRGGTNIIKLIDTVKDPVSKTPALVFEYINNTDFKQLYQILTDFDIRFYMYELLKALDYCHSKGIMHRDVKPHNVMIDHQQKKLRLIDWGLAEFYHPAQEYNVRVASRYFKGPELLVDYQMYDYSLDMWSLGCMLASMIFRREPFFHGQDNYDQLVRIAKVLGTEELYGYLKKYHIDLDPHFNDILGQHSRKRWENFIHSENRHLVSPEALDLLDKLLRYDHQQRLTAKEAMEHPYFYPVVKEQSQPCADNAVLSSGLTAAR
# TEST DESCRIPTION: radiometric filter-binding kinase assay, Kinase HotSpot
# CONDITION INFO: compound 0.5 µM; ATP 10 µM
// return numeric value only (unit: %, not printed)

Look over these answered cases.
{"columns": ["CHEMICAL STRING", "MEASUREMENT TARGET", "READOUT LABEL", "REPORTED"],
 "data": [
  ["Cc1cc(Nc2nc(-c3ccccc3)nc3ccccc23)n[nH]1", "UniProt:P19784", "residual activity", 15],
  ["O=C1NC(=O)c2cc(Nc3ccc(F)cc3)c(Nc3ccc(F)cc3)cc21", "UniProt:P19784", "residual activity", 104],
  ["COc1cc2c(Nc3ccc(Br)cc3F)ncnc2cc1OCC1CCN(C)CC1", "UniProt:P19784", "residual activity", 96.5],
  ["COc1cc2c(N3CCN(C(=O)Nc4ccc(OC(C)C)cc4)CC3)ncnc2cc1OCCCN1CCCCC1", "UniProt:P19784", "residual activity", 92.9],
  ["O=c1[nH]c2ccccc2n1C1CCN(Cc2ccc(-c3nc4cc5[nH]cnc5cc4nc3-c3ccccc3)cc2)CC1", "UniProt:P19784", "residual activity", 101],
  ["FC(F)(F)c1ccc(/C=C/c2nc(COc3ccc(CCCCn4ccnn4)cc3)co2)cc1", "UniProt:P19784", "residual activity", 102],
  ["COc1cc2c(cc1OC)-c1[nH]nc(Nc3cccc(F)c3)c1C2", "UniProt:P19784", "residual activity", 105],
  ["O=c1c2ccccc2[nH]c(=S)n1CCN1CCC(=C(c2ccc(F)cc2)c2ccc(F)cc2)CC1", "UniProt:P19784", "residual activity", 97.7],
  ["O=C(O)c1ccc2c3c1cccc3c(=O)n1c3ccccc3nc21", "UniProt:P19784", "residual activity", 13.3]
]}

We next turn to a different compound, shown below.
(Q) For the compound shown here, `N#CCCc1ccc2c(c1)-c1[nH]c3ccc([N+](=O)[O-])cc3c1CC(=O)N2` , give the reported residual activity.
(A) 92.9

====

# MEASUREMENT TARGET: ABL2 (human)
# TEST DESCRIPTION: radiometric filter-binding kinase assay, Kinase HotSpot
# CONDITION INFO: compound 0.5 µM; ATP 10 µM
residual activity listing for selected molecules.
Lab book: enter the figure in %, no units written.

{"columns": ["CHEMICAL STRING", "REPORTED"],
 "data": [
  ["O=c1c(-c2ccc(F)cc2)c(-c2ccncc2)[nH]n1-c1ccc(Cl)cc1", 82.8],
  ["O=C(c1ccccc1)c1ccc(N2CCOCC2)cc1O", 105],
  ["O=C(O)c1ccc2c3c1cccc3c(=O)n1c3ccccc3nc21", 100],
  ["COc1cc2ncnc(Nc3ccc(O)c(Br)c3)c2cc1OC", 58.4],
  ["CN[C@@H]1C[C@H]2O[C@@](C)([C@@H]1OC)n1c3ccccc3c3c4c(c5c6ccccc6n2c5c31)C(=O)NC4", 5.25]
]}

(Q) Would you mind telling me what residual activity value was observed for `N#Cc1c(NC(=O)c2cccc3ccccc23)sc2c1CCCC2` ?
(A) 98.9

(Q) What would you report for `O=S(=O)(NCCNC/C=C/c1ccc(Br)cc1)c1cccc2cnccc12` ?
(A) 84.4

(Q) Now consider `CCOc1cc2ncnc(Nc3cccc(Br)c3)c2cc1OCC` and answer again.
(A) 52.1

(Q) Further, for `COc1cccc(-c2cc(=O)c3ccccc3o2)c1N` ?
(A) 96.8

====

# MEASUREMENT TARGET: UniProtKB P08581
# Sequence (P08581 whole entry, looked up): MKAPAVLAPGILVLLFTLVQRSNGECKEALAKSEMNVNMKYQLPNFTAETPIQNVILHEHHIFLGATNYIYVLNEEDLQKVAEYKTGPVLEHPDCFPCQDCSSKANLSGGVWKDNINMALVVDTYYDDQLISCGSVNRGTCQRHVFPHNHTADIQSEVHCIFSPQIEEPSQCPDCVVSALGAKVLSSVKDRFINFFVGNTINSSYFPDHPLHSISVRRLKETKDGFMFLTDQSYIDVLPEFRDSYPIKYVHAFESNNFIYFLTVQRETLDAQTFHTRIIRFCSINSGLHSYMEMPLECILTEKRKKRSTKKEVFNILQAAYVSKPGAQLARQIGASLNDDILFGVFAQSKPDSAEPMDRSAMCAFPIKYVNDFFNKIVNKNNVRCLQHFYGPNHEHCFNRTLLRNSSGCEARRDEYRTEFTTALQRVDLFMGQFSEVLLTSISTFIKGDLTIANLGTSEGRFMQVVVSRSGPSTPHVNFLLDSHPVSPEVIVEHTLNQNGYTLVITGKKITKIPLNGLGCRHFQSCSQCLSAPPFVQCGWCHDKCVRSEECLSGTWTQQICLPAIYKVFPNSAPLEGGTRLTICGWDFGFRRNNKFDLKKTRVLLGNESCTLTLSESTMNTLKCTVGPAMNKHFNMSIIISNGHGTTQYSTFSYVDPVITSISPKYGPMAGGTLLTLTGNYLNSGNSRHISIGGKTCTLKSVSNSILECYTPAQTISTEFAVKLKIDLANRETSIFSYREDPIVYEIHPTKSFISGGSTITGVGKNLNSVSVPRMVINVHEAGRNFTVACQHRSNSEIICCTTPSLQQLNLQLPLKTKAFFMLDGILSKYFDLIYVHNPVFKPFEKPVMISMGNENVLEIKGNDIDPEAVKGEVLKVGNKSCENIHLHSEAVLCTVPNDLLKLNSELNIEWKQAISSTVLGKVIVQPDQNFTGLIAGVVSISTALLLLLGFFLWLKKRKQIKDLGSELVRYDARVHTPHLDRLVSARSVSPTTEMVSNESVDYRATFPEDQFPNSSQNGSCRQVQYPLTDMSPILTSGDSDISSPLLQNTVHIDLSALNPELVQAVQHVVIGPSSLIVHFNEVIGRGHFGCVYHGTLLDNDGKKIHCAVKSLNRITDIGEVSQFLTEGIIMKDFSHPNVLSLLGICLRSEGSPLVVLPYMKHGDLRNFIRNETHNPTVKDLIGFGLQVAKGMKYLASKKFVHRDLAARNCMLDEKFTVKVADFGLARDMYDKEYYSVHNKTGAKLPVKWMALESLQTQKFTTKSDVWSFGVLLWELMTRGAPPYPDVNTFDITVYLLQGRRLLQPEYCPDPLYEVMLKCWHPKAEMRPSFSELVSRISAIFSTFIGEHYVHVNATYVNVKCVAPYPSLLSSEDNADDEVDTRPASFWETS
# TEST DESCRIPTION: radiometric filter-binding kinase assay, Kinase HotSpot
# CONDITION INFO: compound 0.5 µM; ATP 10 µM
READOUT LABEL: residual activity (%)
Write the value in % as a bare number.

Examples with answers:
{"columns": ["CHEMICAL STRING", "UNITS LABEL", "residual activity"],
 "data": [
  ["FC(F)(F)c1ccc(/C=C/c2nc(COc3ccc(CCCCn4ccnn4)cc3)co2)cc1", "%", 95.1],
  ["CCc1nc(-c2ccc(OC)cc2)[nH]c1-c1ccncc1", "%", 97.7],
  ["O=C(O)c1ccc2c3c1cccc3c(=O)n1c3ccccc3nc21", "%", 104],
  ["CCCCc1c(-c2ccc(O)cc2)[nH]c2nccnc12", "%", 82.7]
]}

(Q) Using the record for `O=c1c(-c2ccc(F)cc2)c(-c2ccncc2)[nH]n1-c1ccc(Cl)cc1` , report its residual activity.
(A) 101

(Q) And what about the compound `O=c1cc(N2CCOCC2)oc2c(-c3ccccc3)cccc12` ?
(A) 127

(Q) Consider next the compound `O=c1[nH]c2ccccc2n1C1CCN(Cc2ccc(-c3nc4cc5[nH]cnc5cc4nc3-c3ccccc3)cc2)CC1` in the same way.
(A) 102

(Q) Check `COc1cccc(-c2cc(=O)c3ccccc3o2)c1N` too.
(A) 112
